Quick list: log10 of IC50 per entry.
Test system: Jurkat AP1-luciferase Reporter
Assay: DGK AP1-Reporter Assay
Assay type: cell-based
Details: Homo sapiens, Jurkat, read-out: API-Luciferase Reporter IC50, Table 3
Answers are given as log10 of IC50 in µM.

Known log10 of IC50 results, listed for orientation:
{"Compound": "Cc1ccc(CN2CCN(c3c(C#N)c(=O)n(C)c4ccc(Cl)nc34)CC2)cc1", "Assayed system": "Jurkat AP1-luciferase Reporter", "log10 of IC50": -1.30}
{"Compound": "COCCn1c(=O)c([N+](=O)[O-])c(N2CCN(C(C)c3ccc(F)cc3)CC2)c2nc(C#N)ccc21 (racemic)", "Assayed system": "Jurkat AP1-luciferase Reporter", "log10 of IC50": -0.06}
{"Compound": "COCCn1c(=O)c([N+](=O)[O-])c(N2CCN(C(c3ccc(F)cc3)c3ccccc3O)CC2)c2nc(C#N)ccc21 (stereo not drawn)", "Assayed system": "Jurkat AP1-luciferase Reporter", "log10 of IC50": -0.24}

*Q* Answer with the recorded log10 of IC50 of C#CCn1c(=O)c([N+](=O)[O-])c(N2CCN(C(c3ccc(F)cc3)c3ccccc3OC)CC2)c2nc(C#N)ccc21 (single isomer, unassigned) only.
*A* -0.30

*Q* Answer with the recorded log10 of IC50 of Cc1cccc(CN2CCN(c3c(C#N)c(=O)n(C)c4ccc(Cl)nc34)CC2)c1 only.
*A* -1.22

*Q* Answer with the recorded log10 of IC50 of COc1ccc2c(c1)C(N1CCN(c3c(C#N)c(=O)n(CC#N)c4ccc(Br)nc34)CC1)CC2 (stereo not drawn) only.
*A* 1.00

* * *

Assayed system: human DGKζ (Homo sapiens (Human))
Sequence (Q13574 other isoform, or with tags, fused parts or gaps): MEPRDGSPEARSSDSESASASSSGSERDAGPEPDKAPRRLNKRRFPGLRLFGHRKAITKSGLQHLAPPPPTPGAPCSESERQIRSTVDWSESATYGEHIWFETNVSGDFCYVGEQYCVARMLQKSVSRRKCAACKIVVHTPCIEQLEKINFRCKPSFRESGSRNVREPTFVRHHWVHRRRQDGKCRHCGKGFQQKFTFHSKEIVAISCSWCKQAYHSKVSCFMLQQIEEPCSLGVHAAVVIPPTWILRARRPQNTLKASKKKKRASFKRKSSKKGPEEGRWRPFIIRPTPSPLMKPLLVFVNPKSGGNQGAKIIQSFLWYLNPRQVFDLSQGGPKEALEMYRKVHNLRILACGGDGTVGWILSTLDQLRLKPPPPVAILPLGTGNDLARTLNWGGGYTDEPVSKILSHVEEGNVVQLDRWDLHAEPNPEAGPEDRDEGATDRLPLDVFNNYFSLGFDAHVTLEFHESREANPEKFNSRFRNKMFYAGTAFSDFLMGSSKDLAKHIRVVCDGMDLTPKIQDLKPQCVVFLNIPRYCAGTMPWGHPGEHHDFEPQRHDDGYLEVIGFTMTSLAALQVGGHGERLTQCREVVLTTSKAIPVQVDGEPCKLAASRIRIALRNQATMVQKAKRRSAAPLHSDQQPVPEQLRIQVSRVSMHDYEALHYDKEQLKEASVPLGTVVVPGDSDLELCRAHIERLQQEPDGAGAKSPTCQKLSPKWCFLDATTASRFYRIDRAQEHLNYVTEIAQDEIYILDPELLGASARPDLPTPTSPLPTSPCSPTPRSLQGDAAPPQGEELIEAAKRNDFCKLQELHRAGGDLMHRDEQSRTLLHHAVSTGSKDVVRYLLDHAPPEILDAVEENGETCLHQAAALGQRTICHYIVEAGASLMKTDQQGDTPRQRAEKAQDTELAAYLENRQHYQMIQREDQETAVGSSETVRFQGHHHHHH
Assay: DGKζ LIPGLO assay (extruded liposome substrate)
Assay type: biochemical
Details: extruded liposome substrate; read-out: DGKζ LIPGLO IC50
Experimental readout: IC50 (µM)
Lab book: enter the figure in µM, no units written.

*Q* Answer with the recorded IC50 of C=CCn1c(=O)c([N+](=O)[O-])c(N2CCN(C(c3ccccc3)c3ccccc3)CC2)c2ncccc21 only.
*A* 27

*Q* Answer with the recorded IC50 of CC(c1ccc(F)cc1)N1CCN(c2c(C#N)c(=O)n(C)c3ccc(Br)nc23)CC1 (single isomer, unassigned) [Example 24] only.
*A* 90

*Q* Answer with the recorded IC50 of Cn1c(=O)c(C#N)c(N2CCN(C(CC(C)(C)C)c3ccc(F)cc3)CC2)c2nc(Cl)ccc21 (single isomer, unassigned) [Example 377] only.
*A* 130

*Q* Answer with the recorded IC50 of Cn1c(=O)c([N+](=O)[O-])c(N2CCN(C(C)(C)c3ccc(F)cc3)CC2)c2nc(C#N)ccc21 only.
*A* 5.3

*Q* Answer with the recorded IC50 of Cn1c(=O)c(C#N)c(N2CCN(Cc3cc(C#N)ccc3F)CC2)c2nc(Cl)ccc21 only.
*A* 17

*Q* Answer with the recorded IC50 of COc1cc(F)ccc1C(c1ccc(F)cc1)N1CCN(c2c(C#N)c(=O)n(C)c3ccc(C#N)nc23)CC1 (single isomer, unassigned) [Example 406] only.
*A* 3.1

*Q* Answer with the recorded IC50 of COc1ccc2c(n1)c(N1CCN(C(c3ccc(F)cc3)c3ncccc3OC)CC1)c(C#N)c(=O)n2C (stereo not shown) only.
*A* 13

*Q* Answer with the recorded IC50 of Cc1ccc(CN2CCN(c3c(C#N)c(=O)n(C)c4ccc(Cl)nc34)CC2)c(O)c1 only.
*A* 7.8

*Q* Answer with the recorded IC50 of COc1ccc(CN2CCN(c3c(C#N)c(=O)n(C)c4ccc(Br)nc34)CC2)c(O)c1 only.
*A* 6.9

*Q* Answer with the recorded IC50 of COc1cc(F)ccc1C(c1ccc(F)cc1)N1CCN(c2c(C#N)c(=O)n(C)c3ccc(C#N)nc23)CC1 (racemic) [Example 405] only.
*A* 0.86

*Q* Answer with the recorded IC50 of Cn1c(=O)c(C#N)c(N2CCN(Cc3ccc(C(C)(C)C)cc3O)CC2)c2nc(Cl)ccc21 only.
*A* 10

*Q* Answer with the recorded IC50 of Cc1ccc(CN2CCN(c3c(C#N)c(=O)n(C)c4ccc(Br)nc34)CC2)c(O)c1 only.
*A* 8.8

*Q* Answer with the recorded IC50 of Cn1c(=O)c([N+](=O)[O-])c(N2CCN(C(c3ccccc3)c3ccccc3)CC2)c2nc(C#N)ccc21 only.
*A* 0.62

*Q* Answer with the recorded IC50 of COc1ccc2c(n1)c(N1CCN(C(c3ccc(F)cc3)c3ccccc3O)CC1)c(C#N)c(=O)n2C (stereo not shown) only.
*A* 0.78

*Q* Answer with the recorded IC50 of Cn1c(=O)c([N+](=O)[O-])c(N2CCN(C(c3ccc(F)cc3)c3ccc(F)cc3)CC2)c2ncccc21 only.
*A* 2.3

*Q* Answer with the recorded IC50 of CCC(c1ccc(F)cc1)N1CCN(c2c(C#N)c(=O)n(C)c3ccc(Br)nc23)CC1 (single isomer, unassigned) [Example 26] only.
*A* 18

*Q* Answer with the recorded IC50 of Cn1c(=O)c(C#N)c(N2CCN(C(c3ccc(Cl)cc3)c3ccc(Cl)cc3)CC2)c2nc(C#N)ccc21 only.
*A* 1.2

*Q* Answer with the recorded IC50 of Cn1c(=O)c(C#N)c(N2CCN(Cc3ccc(Cl)cc3O)CC2)c2nc(C#N)ccc21 only.
*A* 2.8

* * *

Assayed system: UniProt P23743
Sequence (P23743 other isoform, or with tags, fused parts or gaps): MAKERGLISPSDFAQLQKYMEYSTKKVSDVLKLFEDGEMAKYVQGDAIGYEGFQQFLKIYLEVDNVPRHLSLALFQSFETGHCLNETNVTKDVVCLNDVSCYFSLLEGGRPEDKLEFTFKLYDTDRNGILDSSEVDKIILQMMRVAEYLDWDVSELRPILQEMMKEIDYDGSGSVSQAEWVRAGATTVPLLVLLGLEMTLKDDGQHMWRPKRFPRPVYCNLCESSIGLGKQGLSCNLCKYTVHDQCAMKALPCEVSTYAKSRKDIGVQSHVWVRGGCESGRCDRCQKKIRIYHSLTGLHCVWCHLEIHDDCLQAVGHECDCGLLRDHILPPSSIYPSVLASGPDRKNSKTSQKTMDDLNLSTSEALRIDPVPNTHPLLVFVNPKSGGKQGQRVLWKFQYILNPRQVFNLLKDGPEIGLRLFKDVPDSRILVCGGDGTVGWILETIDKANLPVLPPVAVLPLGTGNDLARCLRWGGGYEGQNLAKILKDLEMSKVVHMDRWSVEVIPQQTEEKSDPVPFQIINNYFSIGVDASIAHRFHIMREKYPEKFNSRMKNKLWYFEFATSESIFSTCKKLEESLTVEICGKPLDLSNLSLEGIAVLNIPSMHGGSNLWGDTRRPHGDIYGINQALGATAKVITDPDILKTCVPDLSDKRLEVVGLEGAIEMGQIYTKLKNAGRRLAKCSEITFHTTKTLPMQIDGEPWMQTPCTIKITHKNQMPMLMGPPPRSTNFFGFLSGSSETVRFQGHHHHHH
Assay: biochemical
Details: detergent/lipid micelle substrate; read-out: DGKα IC50
Experimental readout: pIC50
Scale: negative log10 of molar concentration, which is what pIC50 denotes.

{"Molecule": "COc1cccc(O)c1CN1CCN(c2c(C#N)c(=O)n(C)c3ccc(Br)nc23)CC1 [Example 314]", "Experimental readout": "pIC50", "Value measured": 6.77}
{"Molecule": "Cn1c(=O)c(C#N)c(N2CCN(Cc3c(O)cccc3F)CC2)c2nc(Br)ccc21 [Example 294]", "Experimental readout": "pIC50", "Value measured": 6.96}
{"Molecule": "N#CCCCn1c(=O)c([N+](=O)[O-])c(N2CCN(C(c3ccccc3)c3ccccc3)CC2)c2ncccc21 [Example 183]", "Experimental readout": "pIC50", "Value measured": 4.28}
{"Molecule": "CCn1ccc2c(CN3CCN(c4c([N+](=O)[O-])c(=O)n(C)c5ccc(Br)nc45)CC3)cccc21 [Example 54]", "Experimental readout": "pIC50", "Value measured": 6.09}
{"Molecule": "COc1cccc(CN2CCN(c3c(C#N)c(=O)n(C)c4ccc(Br)nc34)CC2)c1O [Example 368]", "Experimental readout": "pIC50", "Value measured": 6.40}
{"Molecule": "Cc1ccc2c(n1)c(N1CCN(Cc3ccccc3O)CC1)c(C#N)c(=O)n2C [Example 337]", "Experimental readout": "pIC50", "Value measured": 7.19}

*Q* Answer with the recorded pIC50 of Cn1c(=O)c([N+](=O)[O-])c(N2CCN(C(C)(C)c3ccc(F)cc3)CC2)c2nc(C#N)ccc21 [Example 260] only.
*A* 6.46

*Q* Answer with the recorded pIC50 of Cc1ccc2c(n1)c(N1CCN(Cc3cc(Br)ccc3O)CC1)c(C#N)c(=O)n2C [Example 277] only.
*A* 6.12

*Q* Answer with the recorded pIC50 of Cn1c(=O)c(C#N)c(N2CCN(Cc3cccc(F)c3O)CC2)c2nc(Cl)ccc21 [Example 306] only.
*A* 6.70

*Q* Answer with the recorded pIC50 of Cn1c(=O)c([N+](=O)[O-])c(N2CCN(C(c3ccccc3)c3ccccc3)CC2)c2nc(Br)ccc21 [Example 52] only.
*A* 5.11

* * *

Quick list: IC50 per entry.
Assayed system: human DGKζ (Homo sapiens (Human))
Assay: DGKζ LIPGLO assay (extruded liposome substrate)
Format: biochemical
Details: extruded liposome substrate; read-out: DGKζ LIPGLO IC50
Description: The DGKα and DGKζ reactions were performed using either extruded liposome (DGKα and DGKζ LIPGLO assays) or detergent/lipid micelle substrate (DGKα and DGKζ assays). The reactions were carried out in 50 mM MOPS pH 7.5, 100 mM NaCl, 10 mM MgCl2, 1 μM CaCl2, and 1 mM DTT (assay buffer). The reactions using a detergent/lipid micelle substrate also contained 50 mM octyl B-D-glucopyranoside. […]
Lab book: enter the figure in nM, no units written.

{"Molecule": "Cn1c(=O)c(C#N)c(N2CCN(C(c3ccccc3)c3ccc(F)cc3)CC2)c2nc(C#N)ccc21 (centres unmarked)", "Unit of measurement": "nM", "Value measured": 1400}
{"Molecule": "C#CCn1c(=O)c([N+](=O)[O-])c(N2CCN(C(CC)c3ccc(F)cc3)CC2)c2nc(C#N)ccc21 (single isomer, unassigned) [Example 141]", "Unit of measurement": "nM", "Value measured": 1400}
{"Molecule": "Cc1ccc2c(n1)c(N1CCN(C(c3ccc(F)cc3)c3ccccn3)CC1)c(C#N)c(=O)n2C (centres unmarked)", "Unit of measurement": "nM", "Value measured": 10000}
{"Molecule": "Cc1cccc(O)c1CN1CCN(c2c(C#N)c(=O)n(C)c3ccc(Br)nc23)CC1", "Unit of measurement": "nM", "Value measured": 4000}
{"Molecule": "Cc1ccc(CN2CCN(c3c(C#N)c(=O)n(C)c4ccc(Cl)nc34)CC2)c(F)c1", "Unit of measurement": "nM", "Value measured": 33000}

*Q* Answer with the recorded IC50 of CCn1ccc2c(CN3CCN(c4c([N+](=O)[O-])c(=O)n(C)c5ccc(Br)nc45)CC3)cccc21 only.
*A* 1300

*Q* Answer with the recorded IC50 of Cn1c(=O)c([N+](=O)[O-])c(N2CCN([C@@H](c3ccccc3)c3ccc(Cl)cc3)CC2)c2nc(C#N)ccc21 only.
*A* 160
